Cited source: ChEMBL document CHEMBL3882724

# Protocol notes: Half life in human liver microsomes at 1 uM by LC-MS/MS analysis
Provide the reported half-life at 1 µM of each item.

Prompt line: Answer with the recorded half-life at 1 µM of CC(=O)N[C@@H]1CC[C@@]2(C)C(CC[C@H]3C4=CC=C(c5cccnc5)[C@@]4(C)CC[C@@H]32)C1 (stereo not given in full) only.
Response line: 1 to 50 min

Prompt line: Please supply the value of reported half-life at 1 µM for the item C[C@]12CC[C@H]3[C@@H](CCC4=CC(=O)CC[C@@]43C)C1=CC=C2c1cccnc1
Response line: 1 to 50 min

Prompt line: Give half-life at 1 µM for the following compound: C[C@]12CCC(=O)C=C1C=C[C@@H]1[C@@H]2CC[C@]2(C)C(c3cccnc3)=CC[C@@H]12
Response line: 1 to 50 min

Prompt line: Supply recorded half-life at 1 µM for CCCC(=O)N[C@@H]1CC[C@@]2(C)C(=CC[C@@H]3[C@@H]2CC[C@]2(C)C(c4cccnc4)=CC[C@@H]32)C1 here.
Response line: 1 to 50 min

Prompt line: Given the compound C[C@]12CCC(=O)C(O)=C1C=C[C@@H]1[C@@H]2CC[C@]2(C)C(c3cccnc3)=CC[C@@H]12 , write its reported half-life at 1 µM.
Response line: 1 to 50 min

Prompt line: Let me know recorded half-life at 1 µM for CC1C[C@H]2C3=CC=C(c4cncc(F)c4)[C@@]3(C)CC[C@@H]2[C@@]2(C)CCC(=O)C=C12 (stereo not given in full) , thanks.
Response line: 1 to 50 min

Prompt line: Please indicate half-life at 1 µM recorded for C[C@]12CC[C@H]3[C@@H](CC[C@H]4CC(=O)NCC[C@@]43C)C1=CC=C2n1ccnc1
Response line: 1 to 50 min

Prompt line: Give a short answer stating reported half-life at 1 µM for C[C@]12CCNC(=O)C=C1C1CC1[C@@H]1[C@@H]2CC[C@]2(C)C(c3cncc(F)c3)=CC[C@@H]12 (stereo not given in full) .
Response line: 1 to 50 min

Prompt line: Determine its reported half-life at 1 µM: C[C@]12CC[C@H]3[C@@H](CC(F)[C@]4(O)C[C@@H](O)CC[C@]34C)[C@@H]1CC=C2c1cccnc1 (stereo not given in full)
Response line: 1 to 50 min

Prompt line: Read the entry COc1cncc(C2=CC[C@H]3[C@@H]4CC[C@H]5COCCC[C@]5(C)[C@H]4CC[C@]23C)c1 and write its reported half-life at 1 µM.
Response line: 1 to 10 min

Prompt line: Give half-life at 1 µM for the following compound: C[C@]12CC(O)CC1CC[C@@H]1[C@@H]2CC[C@]2(C)C(c3cncc(F)c3)=CC[C@@H]12 (stereo not given in full)
Response line: ≥ 50 min

Prompt line: Note half-life at 1 µM for the compound shown: C[C@]12CCNC(=O)C[C@@H]1CC[C@@H]1[C@@H]2CC[C@]2(C)C(n3ccnn3)=CC[C@@H]12
Response line: ≥ 50 min

Prompt line: Read the entry CC1C[C@H]2C3=CC=C(c4cccnc4)[C@@]3(C)CC[C@@H]2[C@@]2(C)CCC(=O)C=C12 (stereo not given in full) and write its reported half-life at 1 µM.
Response line: 1 to 50 min

Prompt line: Give the reported value of half-life at 1 µM for this record: C[C@]12CC[C@H](O)CC1=CC[C@@H]1[C@@H]2CC[C@]2(C)C(c3cccnc3F)=CC[C@@H]12
Response line: 1 to 50 min

Prompt line: Report half-life at 1 µM for C[C@]12CC[C@@H](NC(=O)C3CC3)CC1=CC[C@H]1C3CC=C(c4cccnc4)[C@@]3(C)CC[C@@H]12 (single isomer, unassigned)
Response line: 1 to 50 min
